# TEST_SYSTEM: FcγRIIA (CD32a, H167)
# EXPERIMENTAL_PROTOCOL: SPR, steady state model, Mean
pKd: −log10 of the molar value.
MEASURED_QUANTITY: pKd

> print(dat)
                        substance            test.system  measured.quantity  measured.number
1  HUMIRA (adalimumab) (antibody)  FcγRIIA (CD32a, H167)                pKd             6.14

* * *

# TEST_SYSTEM: FcγRIIIA (CD16a, V167) (UniProt P08637)
# EXPERIMENTAL_PROTOCOL: SPR, heterogenous ligand model, Mean KD1
pKd: −log10 of the molar value.
MEASURED_QUANTITY: pKd

> print(dat)
                        substance  measured.quantity  measured.number
1  HUMIRA (adalimumab) (antibody)                pKd             7.10
